Value source: PubChem BioAssay (NCI)

- assay-text: NCI Yeast Anticancer Drug Screen. Data for the sgs1 mgt1 strain (AID 161)
- study-conditions: S. cerevisiae sgs1 mgt1 strain, at 50.0 µM
Compounds without any hit were thinned out: in the full panel of roughly 79,000, 15% have a hit. Activity calls are given as the source filed them. Cut-off read from the data, not from the text of the source: active = growth inhibition above about 70%; inactive = the rest.
A correct response names exactly one class from active, inactive

As a guide, the following entries are already answered.
>  <compound>
O=c1[nH]c2ccccc2c2oc3ccccc3c12

>  <label>
inactive

$$$$
>  <compound>
O=C(N=Nc1cccc(Cl)c1)NNc1cccc(Cl)c1

>  <label>
active

$$$$
>  <compound>
COc1ccc(/C(=N\Nc2ccc(Br)cc2)c2ccccc2/C(=N/Nc2ccc(Br)cc2)c2ccccc2OC)cc1

>  <label>
active

$$$$
>  <compound>
NC(Cc1ccnnc1)C(=O)O (stereo unspecified)

>  <label>
inactive

$$$$
>  <compound>
Cc1ccsc1C(=S)Nc1ccc(Cl)c(/C=N/OC(C)C)c1

>  <label>
inactive

$$$$
>  <compound>
Nc1ccccc1CC(c1c[nH]c2ccccc12)c1c[nH]c2ccccc12

>  <label>
active

$$$$
>  <compound>
CCOC(=O)C(/C=N\C(=S)Nc1c(CC)cccc1C(C)(C)C)=C(/O)c1ccccc1

>  <label>
inactive

$$$$
>  <compound>
CC(=O)OC1=C(CC(C)C)C(=O)c2ccccc2C1=O

>  <label>
active

$$$$
>  <compound>
O=C(Nc1ccc(Br)cc1)c1c(-c2ccccc2)c2ccc(O)cc2oc1=O

>  <label>
active

$$$$
>  <compound>
CC(=O)Nc1ccc(NC(=S)Nc2ccc(NC(C)=O)cc2)cc1

>  <label>
inactive

$$$$

Here is another compound to look at.
Hi, do you know how COc1cc2c(c(O)c1C)C(=O)C(Cl)=CC2=O came out in this test?
active
